- TEST TARGET: Zif268 wildtype (three zinc fingers, phage displayed) (Mus musculus) (UniProt P08046)
- RUN DESCRIPTION: ELONA
- CONDITION NOTES: apparent non-equilibrium Kd, phage ELISA, all values scaled to this one (3.0 nM); PBS/Zn, milk, Tween 20, salmon testes DNA, RT
OBSERVABLE: pKd
Note: pKd values are expressed as the negative base-10 logarithm of concentration in M.

Looking up TATATAGCGTGGGCGTATATATCAAGTCAATCGGTCC (double strand) [Zif268 site TGG] , I see its pKd listed as 8.52

* * *

- TEST TARGET: Zif268 finger 2 variant RGPD finger 2 alpha-helix variant RGPD (full helix only in FIG. 1D) (Mus musculus) (UniProt P08046)
- CONDITION NOTES: [none]; apparent Kd interpolated from microarray signal 0.119
OBSERVABLE: Kd (nM)
Answer in nM, number only, no unit symbol.

The sequence TATATAGCGCCCGCGTATATATCAAGTCAATCGGTCC (double strand) [Zif268 site CCC] showed Kd equal to 770

Provenance of the data: patent US20040203002
